Target system: T1, Recombinant human OPG-Fc (human, UniProt O00300 22-194)
T1 construct: bought; also called rhuOPGFc; human Osteoprotegerin; Fc part of the bought chimera not given
T1 sequence (looked up): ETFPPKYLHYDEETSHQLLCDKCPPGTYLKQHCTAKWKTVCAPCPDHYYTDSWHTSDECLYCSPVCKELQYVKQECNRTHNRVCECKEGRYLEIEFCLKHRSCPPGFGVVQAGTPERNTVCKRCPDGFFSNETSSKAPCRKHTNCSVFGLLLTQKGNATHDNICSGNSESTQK
Assay procedure: binding ELISA
Measured attribute: binding result

[[record]]
binder = "DR5TAA-0019 (antibody, V domains shown, rabbit IgG) VH: QSVEESGGRLVTPGTPLTLTCTVSGFSLSNYAMSWVRQAPGKGLEWIGIISSSGTTYYASWAKGRFTISKTSTTVDLKVTSPTTEDTATYFCARETYYGYSYAAGLWGPGTLVTVSS VL: ALVMTQTPSSVSAAVGGTVTINCQASQNIYSNLAWFQQKPGQPPKLLIYETSKLASGVPSRFSGSGSGTEFTLTISDLECDDAATYYCQSSWHSISTDCAFGGGTEVVVKG"
result = "no binding"

[[record]]
binder = "DR5TAA-0011 (antibody, V domains shown, also called 174; clone 174) VH: QSVEESGGRLVTPGTPLTLTCTVSGFSISRYAMIWVRQAPGEGLEYIGFITSDSSAYYASWAKGRFTISKTSTTVDLKMTSPTTEDTATYFCARYTYSDGTDLWGPGTLVTVSS VL: DIVMTQTPASVSEPVGGTVTIKCQASQSISTYLSWYQQKPGQPPKRLIYKASTLASGVPSRFKGSGSGTDFTLTIRDLECADAATYYCQPNSGIATYGAAFGGGTEVVVKG"
result = "no binding"

[[record]]
binder = "DR5TAA-0006 (antibody, V domains shown, rabbit IgG; also called 058; clone 058) VH: QSLEESGGRLVTPGTPLTLTCTASGFSLSSNHMSWVRQAPGKGLEWIGYIYAGSGSAYYASWAKGRFTISRTSTTVDLKMTSLTTEDTATYFCAGDAGSSYWEFNLWGPGTLVTVSS VL: LVMTQTPSSTSEPVGGTVTIKCQASQSIGSSLSWYQQKPGQPPKLLIYHASTLASGVPSRFSGSRSGIQTTLTISGVQCDDAATYYCLGVADARRDDGFAFGGGTEVVVKG"
result = "no binding"


All values here come from patent US20190062453A1.
